ASSAYED_TARGET: Sigma intracellular receptor 2 (Rattus norvegicus, UniProt Q5U3Y7)
Sequence (Q5U3Y7 whole entry): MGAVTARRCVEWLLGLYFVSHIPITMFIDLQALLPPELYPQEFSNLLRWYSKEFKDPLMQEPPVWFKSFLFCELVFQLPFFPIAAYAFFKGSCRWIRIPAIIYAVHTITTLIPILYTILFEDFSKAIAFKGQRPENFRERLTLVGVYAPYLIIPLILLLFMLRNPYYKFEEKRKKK
MEASUREMENT_NOTES: Displacement of [3H]DTG from sigma 2 receptor in Wistar Han rat liver membrane assessed as inhibition constant by competitive binding assay
Type: cell membranes
READOUT_KIND: Ki (nM)

{"columns": ["SMILES_NOTATION", "RECORDED_RESULT"],
 "data": [
  ["COc1cc2c(cc1OC)CN(CCCN1CCc3c(OCCCCCCN4C(=O)c5ccc(N(C)C)cc5C4=O)cccc3C1=O)CC2", 10.2]
]}
